B1: OR4K15 (parent)
chain: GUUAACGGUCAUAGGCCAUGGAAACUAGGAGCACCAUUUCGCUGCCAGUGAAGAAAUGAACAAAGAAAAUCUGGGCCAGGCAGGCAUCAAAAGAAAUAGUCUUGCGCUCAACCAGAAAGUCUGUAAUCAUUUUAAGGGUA

Variants of: B1
Test protocol: self-cleavage, relative activity (ratio to wild type); higher = more cleavage; in vitro, sequencing; the parent is a self-cleaving ribozyme
Each record here notes measured self-cleavage.
Just the number, please.

Here are 4 variants together with their reported answers.
Mutation name | self-cleavage
C17U A69G | 0.62
A11G A91U | 1.22
A64C G80A | 0.2
U49C A59C | 0.9

Lab note: next variant to report on.
Could you please provide reported self-cleavage for A60C U87C ? Thanks! 1.18
